- System: Recombinant ROCK1 (amino acids 1-477) (Homo sapiens, UniProt Q13464)
- Construct: Recombinant ROCK1 (amino acids 1-477); by word order, ROCK1 from Carna Biosciences
- Sequence (Q13464 1-477): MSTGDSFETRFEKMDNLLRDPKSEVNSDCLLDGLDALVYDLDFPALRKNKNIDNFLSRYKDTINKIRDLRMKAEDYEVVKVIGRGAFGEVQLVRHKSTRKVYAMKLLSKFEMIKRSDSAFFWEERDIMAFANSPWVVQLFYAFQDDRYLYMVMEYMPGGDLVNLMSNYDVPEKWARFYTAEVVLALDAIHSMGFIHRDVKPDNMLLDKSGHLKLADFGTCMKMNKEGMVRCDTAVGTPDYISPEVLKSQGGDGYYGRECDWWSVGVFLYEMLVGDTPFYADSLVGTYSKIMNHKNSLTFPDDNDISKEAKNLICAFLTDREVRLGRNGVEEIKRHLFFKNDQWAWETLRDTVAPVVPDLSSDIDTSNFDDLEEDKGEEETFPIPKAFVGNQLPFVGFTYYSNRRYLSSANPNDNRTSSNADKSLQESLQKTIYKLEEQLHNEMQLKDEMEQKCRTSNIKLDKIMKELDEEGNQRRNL
- Test details: ROCK inhibition assay, LANCE Ultra TR-FRET kinase assay (ROCK1)
- Condition context: 1 μM ATP, 50 nM ULight-CREBtide substrate
pIC50: −log10 of the molar value.
Measure name: pIC50

Q. # value lookup — system Recombinant ROCK1 (amino acids 1-477) (Homo sapiens, UniProt Q13464), readout pIC50, item Cn1nccc1-c1ccc2c(=O)n(Cc3cccc(C(=O)NCC4COC4)c3)ccc2c1 [Compound 111]
A. 6.30 to 7.00

Q. pIC50 of Cn1nccc1-c1ccc2c(=O)n(Cc3cccc(C(=O)N[C@H]4C[C@H](O)C4)c3)cnc2c1 [Compound 428] on Recombinant ROCK1 (amino acids 1-477) (Homo sapiens, UniProt Q13464)?
A. 7.00 to 7.96
